# Target Of Assay: H4 (Homo sapiens, UniProt Q9H3N8)
# Sequence (Q9H3N8 whole entry): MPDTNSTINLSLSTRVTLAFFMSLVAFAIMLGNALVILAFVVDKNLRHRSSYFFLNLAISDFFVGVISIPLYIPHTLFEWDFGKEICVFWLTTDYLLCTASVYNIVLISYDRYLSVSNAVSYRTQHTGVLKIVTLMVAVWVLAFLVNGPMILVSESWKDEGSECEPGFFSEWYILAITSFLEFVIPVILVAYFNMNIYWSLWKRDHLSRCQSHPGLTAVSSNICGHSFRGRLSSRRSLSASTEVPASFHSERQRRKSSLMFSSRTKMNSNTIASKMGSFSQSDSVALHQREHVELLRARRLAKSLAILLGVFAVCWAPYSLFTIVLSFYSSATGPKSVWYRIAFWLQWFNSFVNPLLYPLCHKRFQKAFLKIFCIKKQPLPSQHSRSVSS
Quantity: Ki (nM)
Lab book: enter the figure in nM, no units written.

Sample CCCCCCOc1nsnc1C1=CCCNC1 — what was its Ki?
363

----------
# Target Of Assay: β3 (Homo sapiens)
# Sequence (P13945 whole entry): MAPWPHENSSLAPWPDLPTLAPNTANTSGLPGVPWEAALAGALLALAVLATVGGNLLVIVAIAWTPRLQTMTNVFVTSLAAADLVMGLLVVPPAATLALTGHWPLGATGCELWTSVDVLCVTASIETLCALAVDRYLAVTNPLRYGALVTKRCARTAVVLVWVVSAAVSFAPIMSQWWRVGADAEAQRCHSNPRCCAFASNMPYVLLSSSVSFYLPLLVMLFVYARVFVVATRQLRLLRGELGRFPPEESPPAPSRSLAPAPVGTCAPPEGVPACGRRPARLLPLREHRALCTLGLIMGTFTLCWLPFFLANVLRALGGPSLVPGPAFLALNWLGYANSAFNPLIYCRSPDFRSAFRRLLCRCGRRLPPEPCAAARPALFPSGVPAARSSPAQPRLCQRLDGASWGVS
Quantity: Ki

Sample CCCCCCOc1nsnc1C1=CCCN(C)C1 — what was its Ki?
> 10 µM

Reference source: paper doi:10.1101/2025.11.20.689572v1
